So I've got a bunch of compounds here, and I need their Cell viability values.
# Tested on: HEK293
# Experimental protocol: Cytotoxicity against HEK293 cells assessed as reduction in cell viability at 50 uM after 24 hrs by alamar blue assay
# Type: toxicity, cell-based
# Test conditions: human, hek293, 24 h
One number for each entry, in %.

Illustrative cases are given below, each with its answer.
[[record]]
structure_smiles = "CCCNNC(=O)c1cnc(N2CCN(C)CC2)nc1"
scale_unit = "%"
reported_measurement = 93.6

[[record]]
structure_smiles = "CCCNNC(=O)c1cnc(NCc2cccc3ccccc23)nc1"
scale_unit = "%"
reported_measurement = 78.9

[[record]]
structure_smiles = "CCCCCCNNC(=O)c1ccc(-c2ccc(CNC(C)=O)cc2)cc1"
scale_unit = "%"
reported_measurement = 121.3

[[record]]
structure_smiles = "CCCNNC(=O)c1cnc(NCc2ccccc2)nc1"
scale_unit = "%"
reported_measurement = 80.9

[[record]]
structure_smiles = "CCCCCCNNC(=O)c1cccc(NCc2ccccc2)c1"
scale_unit = "%"
reported_measurement = 71.2


// for each compound in input: emit Cell viability
1. CCCNNC(=O)c1cnc(NCc2ccc(CNC(C)=O)cc2)nc1
2. CCCCCCNNC(=O)c1cnc(N2CCN(Cc3c[nH]c4ccccc34)CC2)nc1

Outgoing:
1: 93.1; 2: 2.18

// for each compound in input: emit Cell viability
1. CCCNNC(=O)c1ccc(CNC(C)=O)cc1
2. CCCCCCNNC(=O)c1cnc(NCCc2ccccc2)nc1
3. CCCNNC(=O)c1cnc(NCc2ccccc2Cl)nc1
4. CCCCCCNNC(=O)c1cnc(N2CCN(CCc3c[nH]c4ccccc34)CC2)nc1

Outgoing:
1: 81.2; 2: 90.1; 3: 80.7; 4: 47.1

// for each compound in input: emit Cell viability
1. CCCCNNC(=O)c1cnc(NCc2ccccc2)nc1
2. CCCNNC(=O)c1cnc(N2CCN(Cc3c[nH]c4ccccc34)CC2)nc1
3. CCCCNNC(=O)c1ccc(-c2ccc(CNC(C)=O)cc2)cc1
4. CCCNNC(=O)c1cnc(NCCc2ccccc2)nc1
5. CCCCCCNNC(=O)c1cnc(N2CCN(Cc3cn(C)c4ccccc34)CC2)nc1
6. CCCCCCNNC(=O)c1ccc(CNC(C)=O)cc1
7. CCCCCNNC(=O)c1ccc(-c2ccc(CNC(C)=O)cc2)cc1
8. CCCCCCNNC(=O)c1cnc(NCc2ccc(CNC(C)=O)cc2)nc1

Outgoing:
88.9
47
80.1
80.5
1.6
113.3
90.8
79.4

// for each compound in input: emit Cell viability
1. CCCCCCNNC(=O)c1cnc(NCc2cccc3ccccc23)nc1
2. CCCNNC(=O)c1cnc(NCc2ccc(Cl)cc2)nc1
3. CCCCCCNNC(=O)c1ccc(C)c(NCc2ccccc2)c1
4. CCCNNC(=O)c1cnc(NCc2cc(Cl)ccc2Cl)nc1
5. CCCCCCNNC(=O)c1cnc(NCc2ccccc2)nc1

Outgoing:
1: 65.7; 2: 83.2; 3: 41.7; 4: 78.2; 5: 88.4

// for each compound in input: emit Cell viability
1. CCCCCCNNC(=O)c1cnc(N2CCN(CCc3cn(C)c4ccccc34)CC2)nc1
2. CCCNNC(=O)c1ccc(-c2ccc(CNC(C)=O)cc2)cc1

Outgoing:
1. 31.8
2. 83.9

* * *

# Experimental protocol: Stability of compound in DMEM/DMSO/acetonitrile at pH 7.4 measured after 48 hrs by HPLC analysis
# Type: physicochemical
# Test conditions: read-out: Stability
Property label: remaining at 48 h (%)
One number for each entry, in %.

[[record]]
structure_smiles = "CCCCCCNNC(=O)c1ccc(-c2ccc(CNC(C)=O)cc2)cc1"
property_label = "remaining at 48 h"
reported_measurement = 104

[[record]]
structure_smiles = "CCCNNC(=O)c1cnc(N2CCN(Cc3c[nH]c4ccccc34)CC2)nc1"
property_label = "remaining at 48 h"
reported_measurement = 27.1


Here is another compound to look at.
Incoming: Given `CCCNNC(=O)c1ccc(-c2ccc(CNC(C)=O)cc2)cc1` , state its recorded remaining at 48 h.
Outgoing: 90.4

* * *

# Tested system: UniProt Q9BY41
# Sequence (whole entry): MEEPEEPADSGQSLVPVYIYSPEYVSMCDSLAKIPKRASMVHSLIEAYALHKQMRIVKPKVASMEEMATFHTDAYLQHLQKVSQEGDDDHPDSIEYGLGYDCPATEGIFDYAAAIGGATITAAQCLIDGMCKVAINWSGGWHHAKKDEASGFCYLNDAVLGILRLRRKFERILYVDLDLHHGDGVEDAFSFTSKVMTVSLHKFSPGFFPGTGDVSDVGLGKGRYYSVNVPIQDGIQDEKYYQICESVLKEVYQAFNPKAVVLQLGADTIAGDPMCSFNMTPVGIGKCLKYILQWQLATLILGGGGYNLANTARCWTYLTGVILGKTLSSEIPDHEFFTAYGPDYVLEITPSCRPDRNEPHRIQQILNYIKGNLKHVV
# Experimental protocol: Inhibition of recombinant human HDAC8 at 10 uM using (Abz-SRGK(thio-TFA)FFRR-NH2) as substrate preincubated for 5 mins followed by substrate addition by fluorescence based analysis relative to control
Classify as follows. Reported inhibition greater than or equal to 90%: met. Reported inhibition below: not met.

[[record]]
structure_smiles = "CCCNNC(=O)c1cnc(NCc2cccc3ccccc23)nc1"
tested_system = "UniProt Q9BY41"
assigned_label = "not met"


Incoming: Check this compound for inhibition at or above 90%: `CCCNNC(=O)c1cnc(NCc2cc(Cl)ccc2Cl)nc1`
Outgoing: not met

Incoming: Check this compound for inhibition at or above 90%: `CCCCNNC(=O)c1cnc(NCc2ccccc2)nc1`
Outgoing: met

Incoming: Check this compound for inhibition at or above 90%: `CCCCCCNNC(=O)c1ccc(C)c(NCc2ccccc2)c1`
Outgoing: met

Incoming: Check this compound for inhibition at or above 90%: `CCCNNC(=O)c1cnc(NCc2ccccc2Cl)nc1`
Outgoing: not met

* * *

So I've got a bunch of compounds here, and I need their inhibition values.
# Tested system: Histone deacetylase 2 (Homo sapiens, UniProt Q92769)
# Sequence (Q92769 whole entry): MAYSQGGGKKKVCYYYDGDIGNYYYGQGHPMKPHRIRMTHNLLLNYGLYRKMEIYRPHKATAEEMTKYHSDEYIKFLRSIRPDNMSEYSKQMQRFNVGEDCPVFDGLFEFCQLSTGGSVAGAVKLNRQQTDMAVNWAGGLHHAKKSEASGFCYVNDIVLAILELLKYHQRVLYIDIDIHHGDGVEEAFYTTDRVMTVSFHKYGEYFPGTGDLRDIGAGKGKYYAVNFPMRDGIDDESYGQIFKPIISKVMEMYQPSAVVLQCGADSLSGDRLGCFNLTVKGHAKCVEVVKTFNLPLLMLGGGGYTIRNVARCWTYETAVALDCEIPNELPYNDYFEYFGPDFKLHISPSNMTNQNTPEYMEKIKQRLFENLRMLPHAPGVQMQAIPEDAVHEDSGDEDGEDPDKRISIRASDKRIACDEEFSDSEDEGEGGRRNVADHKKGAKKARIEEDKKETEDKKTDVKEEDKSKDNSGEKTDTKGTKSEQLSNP
# Experimental protocol: Inhibition of recombinant human HDAC2 at 10 uM using p53 (Ac-RHKK(Acetyl)-AMC) as substrate preincubated for 5 mins followed by substrate addition and measured after 30 mins by fluorescence based analysis relative to control
# Test conditions: time 35.0 min
Numbers only, in %.

// for each compound in input: emit inhibition
1. CCCNNC(=O)c1cnc(NCc2ccc(Cl)cc2)nc1
2. CCCNNC(=O)c1cnc(NCc2ccccc2Cl)nc1
3. CCCCCCNNC(=O)c1ccc(C)c(NCc2ccccc2)c1
4. CCCNNC(=O)c1cnc(NCc2cccc3ccccc23)nc1

Outgoing:
[96, 92, 26, 93]

// for each compound in input: emit inhibition
1. CCCCNNC(=O)c1cnc(NCc2ccccc2)nc1
2. CCCNNC(=O)c1cnc(NCCc2ccccc2)nc1

Outgoing:
1. 93
2. 90

* * *

# Tested system: Histone deacetylase 8 (Homo sapiens) (UniProt Q9BY41)
# Sequence (whole entry): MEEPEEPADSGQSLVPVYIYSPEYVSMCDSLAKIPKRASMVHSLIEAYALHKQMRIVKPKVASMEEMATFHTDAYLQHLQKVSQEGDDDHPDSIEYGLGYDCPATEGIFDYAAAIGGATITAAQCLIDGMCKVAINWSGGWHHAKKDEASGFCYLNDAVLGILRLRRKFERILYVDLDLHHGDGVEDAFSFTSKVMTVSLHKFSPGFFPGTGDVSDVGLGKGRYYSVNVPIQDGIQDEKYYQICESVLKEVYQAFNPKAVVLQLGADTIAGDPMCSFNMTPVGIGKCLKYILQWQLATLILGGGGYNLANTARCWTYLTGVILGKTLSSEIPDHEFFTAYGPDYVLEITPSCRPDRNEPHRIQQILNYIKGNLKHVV
# Experimental protocol: Inhibition of recombinant human HDAC8 at 1 uM using (Abz-SRGK(thio-TFA)FFRR-NH2) as substrate preincubated for 5 mins followed by substrate addition by fluorescence based analysis relative to control
Property label: inhibition
Answer shape: numeric part, then the unit.

Illustrative cases are given below, each with its answer.
[[record]]
structure_smiles = "CCCCCCNNC(=O)c1ccc(C)c(NCc2ccccc2)c1"
tested_system = "Histone deacetylase 8 (Homo sapiens) (UniProt Q9BY41)"
reported_measurement = "2%"

[[record]]
structure_smiles = "CCCCNNC(=O)c1cnc(NCc2ccccc2)nc1"
tested_system = "Histone deacetylase 8 (Homo sapiens) (UniProt Q9BY41)"
reported_measurement = "66%"

[[record]]
structure_smiles = "CCCNNC(=O)c1cnc(NCc2cc(Cl)ccc2Cl)nc1"
tested_system = "Histone deacetylase 8 (Homo sapiens) (UniProt Q9BY41)"
reported_measurement = "33%"

[[record]]
structure_smiles = "CCCNNC(=O)c1cnc(NCc2cccc3ccccc23)nc1"
tested_system = "Histone deacetylase 8 (Homo sapiens) (UniProt Q9BY41)"
reported_measurement = "36%"


// for each molecule in input: emit inhibition
1. CCCNNC(=O)c1cnc(NCCc2ccccc2)nc1
2. CCCNNC(=O)c1cnc(NCc2ccc(Cl)cc2)nc1

Outgoing:
["51%", "62%"]

Incoming: Given `CCCNNC(=O)c1cnc(NCc2ccccc2Cl)nc1` , state its recorded inhibition.
Outgoing: 43%
